Source listed as patent US20190330197A1.

Reported pIC50 values for a set of molecules
System: ALT (Alternative Lengthening of Telomeres) cell line
Experiment: SRB growth inhibition, ALT
Type: cell-based, human
Conditions: 96 hr, SRB assay; read-out: short-term 96 hr IC50 ALT
Method: Human cancer cell lines and the somatic human cell line WI-38 (lung fibroblast) were purchased from the American Type Culture Collection. […] Cellular growth inhibition was measured using the sulforhodamine B (SRB) assay in 96 well plates. Fifty percent inhibitory concentrations (IC50) were determined by taking the mean absorbance at 540 nm for each drug concentration expressed as a percentage of the absorbance of untreated control wells.
For clarity, pIC50 is expressed as the negative log10 of concentration in mol/L.

Past entries and their recorded results:
> print(dat)
                               given.smiles  measured.endpoint  recorded.value
1  O=C1c2ccc3c4c(c(NCCN5CCCC5)cc(c24)C(=O)N1CCCN1CCOCC1)C(=O)N(CCCN1CCOCC1)C3=O              pIC50            7.03
2  O=C1c2ccc3c4c(c(NCCc5ccc(O)cc5)cc(c24)C(=O)N1CCCN1CCOCC1)C(=O)N(CCCN1CCOCC1)C3=O              pIC50            6.35
3  CCN(CC)CCNc1cc2c3c(ccc4c3c1C(=O)N(CCCN1CCOCC1)C4=O)C(=O)N(CCCN1CCOCC1)C2=O              pIC50            5.57
4  O=C1c2ccc3c4c(c(NCCc5ccccn5)cc(c24)C(=O)N1CCCN1CCOCC1)C(=O)N(CCCN1CCOCC1)C3=O              pIC50            5.89

Now look at this one.
The molecule CN1CCN(CCNc2cc3c4c(ccc5c4c2C(=O)N(CCCN2CCOCC2)C5=O)C(=O)N(CCCN2CCOCC2)C3=O)CC1 showed pIC50 equal to 7.07
